# System: IL-2 production in Jurkat cells
# protocol.notes: Jurkat IL-2 functional assay (ELISA of supernatants)
# Format: cell-based
# applied.conditions: Homo sapiens, overnight incubation, ELISA of supernatants
pEC50: −log10 of the molar value.
measured.property: pEC50

compound="O=C1CCC(N2Cc3cc(C[C@H]4CCCC[C@@H]4NC4CCC(F)(F)CC4)ccc3C2=O)C(=O)N1 (stereo partly drawn)" measured_property=pEC50 measured=8.46
compound="O=C1CC[C@H](N2Cc3cc(C[C@H]4CCCC[C@@H]4NC4CCC(F)(F)CC4)ccc3C2=O)C(=O)N1 (single isomer, unassigned)" measured_property=pEC50 measured=8.47
compound="CC(N[C@H]1CCCC[C@@H]1Cc1ccc2c(c1)CN(C1CCC(=O)NC1=O)C2=O)C1CCC1 (stereo partly drawn)" measured_property=pEC50 measured=8.10

a: CCN[C@H]1CCCC[C@@H]1Cc1ccc2c(c1)CN(C1CCC(=O)NC1=O)C2=O (stereo partly drawn)
b: O=C1CCC(N2Cc3c(ccc(C[C@H]4OCCC[C@@H]4NC4CCC(F)(F)CC4)c3F)C2=O)C(=O)N1 (stereo partly drawn)
-- ask Please state the entry with greater pEC50 among a and b . Selection: enter the item's label.
-- reply b

1: O=C1CCC(N2Cc3c(ccc(C[C@H]4CCCC[C@@H]4NC4CCC(F)(F)CC4)c3F)C2=O)C(=O)N1 (stereo partly drawn)
2: CCN[C@H]1CCCC[C@@H]1Oc1ccc2c(c1)CN(C1CCC(=O)NC1=O)C2=O (stereo partly drawn)
3: O=C1CC[C@H](N2Cc3c(ccc(C[C@H]4OCCC[C@@H]4N[C@H]4CC[C@H](F)CC4)c3F)C2=O)C(=O)N1
-- ask Hi! Can you put these in order of pEC50, lowest number first? Please write the labels in the order that was asked for.
-- reply 2, 1, 3
(2: 7.74, 1: 9.70, 3: 10.52)

P: O=C1CCC(N2Cc3cc(C4CCC(Cc5ccccc5)CC4)ccc3C2=O)C(=O)N1 (stereo not drawn)
Q: CC(N[C@H]1CCCC[C@@H]1Cc1ccc2c(c1F)CN(C1CCC(=O)NC1=O)C2=O)C1CCOCC1 (single isomer, unassigned)
-- ask Please state the entry with greater pEC50 among P and Q . Selection: enter the item's label.
-- reply Q
(Q: 9.22, P: 8.00)

a: O=C1CCC(N2Cc3cc(O[C@H]4CCCC[C@@H]4NC4CCC(F)(F)CC4)ccc3C2=O)C(=O)N1 (stereo partly drawn)
b: O=C1CCC(N2Cc3c(ccc(C[C@H]4OCCC[C@@H]4NC4CCC(C(F)F)CC4)c3F)C2=O)C(=O)N1 (single isomer, unassigned)
-- ask Please state the entry with greater pEC50 among a and b . Selection: enter the item's label.
-- reply b

Reference source for all entries: patent US11897862B2
